- Tested system: CDK1 (Homo sapiens)
- Construct: purchased Carna Biosciences, Inc
- Sequence (P06493 whole entry): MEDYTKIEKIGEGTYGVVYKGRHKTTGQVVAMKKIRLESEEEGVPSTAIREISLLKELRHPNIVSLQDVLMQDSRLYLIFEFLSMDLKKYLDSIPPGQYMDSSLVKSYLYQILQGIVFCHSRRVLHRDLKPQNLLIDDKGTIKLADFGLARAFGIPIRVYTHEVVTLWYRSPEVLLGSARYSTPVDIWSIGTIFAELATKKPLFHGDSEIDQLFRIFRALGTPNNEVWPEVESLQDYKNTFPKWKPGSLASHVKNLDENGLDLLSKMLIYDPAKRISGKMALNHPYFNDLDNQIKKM
- Sequence (P14635 whole entry partner): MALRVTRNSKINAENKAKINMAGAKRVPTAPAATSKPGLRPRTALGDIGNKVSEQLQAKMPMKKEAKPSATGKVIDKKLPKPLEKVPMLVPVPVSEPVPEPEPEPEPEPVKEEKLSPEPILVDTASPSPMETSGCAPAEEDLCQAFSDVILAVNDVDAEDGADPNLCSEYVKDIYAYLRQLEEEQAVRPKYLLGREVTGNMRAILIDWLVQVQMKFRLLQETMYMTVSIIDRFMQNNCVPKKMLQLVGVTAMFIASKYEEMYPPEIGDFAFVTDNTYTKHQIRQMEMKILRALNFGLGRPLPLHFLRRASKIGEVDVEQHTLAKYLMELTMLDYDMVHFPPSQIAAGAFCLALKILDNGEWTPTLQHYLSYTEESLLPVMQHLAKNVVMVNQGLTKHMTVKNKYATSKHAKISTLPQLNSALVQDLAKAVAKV
- Method description: CDK1 kinase activity inhibition (ADP-Glo)
- Format: biochemical
- Experimental conditions: 50 μM ATP, 2 h at room temperature
Property measured: IC50 (nM)

## Input Param item = `CC(=O)NC[C@H]1CCC(F)(F)CN1C(=O)c1nc(Nc2cc(OC(F)F)ccn2)ccc1C` ; retrieve measured IC50.
## Output 755

I: COc1cc(F)ccc1-c1cc(Nc2cc(CS(C)(=N)=O)ccn2)ncc1F (stereo not shown) [BAY1251152, reference compound]
II: Cc1ccc(Nc2cc(OC(F)(F)F)ccn2)nc1C(=O)N1CCCN2CCCC2C1 (stereo not shown)
III: CC(=O)N[C@@H]1CCC[C@H](C(=O)Nc2cc(-c3cnn4c3CC(C)(C)C4)c(Cl)cn2)C1 [AZD4573, reference compound]
IV: CC(=O)NC[C@H]1CCC(F)(F)CN1C(=O)c1nc(Nc2cc(OC(F)(F)F)ccn2)ccc1C
## Input Please order the records by their reported IC50, lowest number first. // rank by listing labels in the order requested
## Output III, IV, I, II

----------
- Tested system: UniProt P50750
- Sequence (P50750 whole entry): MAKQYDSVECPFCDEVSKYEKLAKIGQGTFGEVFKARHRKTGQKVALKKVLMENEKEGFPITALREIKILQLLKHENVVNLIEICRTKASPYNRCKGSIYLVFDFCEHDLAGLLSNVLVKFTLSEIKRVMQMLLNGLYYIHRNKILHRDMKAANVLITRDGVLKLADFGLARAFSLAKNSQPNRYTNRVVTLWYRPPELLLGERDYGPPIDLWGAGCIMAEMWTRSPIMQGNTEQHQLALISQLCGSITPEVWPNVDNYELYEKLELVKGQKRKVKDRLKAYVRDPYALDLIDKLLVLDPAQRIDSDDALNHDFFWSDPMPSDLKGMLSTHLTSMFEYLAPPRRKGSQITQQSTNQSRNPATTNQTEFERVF
- Sequence (O60563 whole entry partner): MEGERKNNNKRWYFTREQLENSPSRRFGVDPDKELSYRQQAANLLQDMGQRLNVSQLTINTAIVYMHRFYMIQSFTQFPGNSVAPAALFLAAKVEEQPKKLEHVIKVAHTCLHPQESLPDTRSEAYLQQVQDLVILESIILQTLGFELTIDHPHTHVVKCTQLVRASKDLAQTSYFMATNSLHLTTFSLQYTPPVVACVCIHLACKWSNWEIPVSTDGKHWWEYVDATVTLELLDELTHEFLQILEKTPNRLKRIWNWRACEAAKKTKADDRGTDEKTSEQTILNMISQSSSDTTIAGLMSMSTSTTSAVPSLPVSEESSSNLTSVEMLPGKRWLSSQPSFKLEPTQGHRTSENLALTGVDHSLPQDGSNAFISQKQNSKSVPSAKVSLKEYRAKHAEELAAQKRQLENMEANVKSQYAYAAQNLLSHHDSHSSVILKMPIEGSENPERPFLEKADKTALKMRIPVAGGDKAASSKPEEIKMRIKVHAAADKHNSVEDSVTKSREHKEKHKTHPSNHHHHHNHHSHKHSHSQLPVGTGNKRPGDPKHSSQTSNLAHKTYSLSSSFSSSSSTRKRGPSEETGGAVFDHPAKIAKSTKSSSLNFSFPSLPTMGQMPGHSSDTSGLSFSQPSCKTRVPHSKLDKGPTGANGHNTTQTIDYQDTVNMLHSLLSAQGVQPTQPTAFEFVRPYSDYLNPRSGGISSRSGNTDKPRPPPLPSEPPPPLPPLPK
- Method description: CDK9 kinase activity inhibition (ADP-Glo)
- Type: biochemical
- Experimental conditions: 10 μM ATP, 2 h at room temperature
Property measured: IC50 (nM)

## Input Param item = `Cc1ccc(Nc2cc(OC(F)(F)F)ccn2)nc1C(=O)N1CCCC[C@@H]1CNC(=O)OC(C)(C)C` ; retrieve measured IC50.
## Output 245

## Input Param item = `COc1ccnc(Nc2ccc(C)c(C(=O)N3CC(F)(F)CC[C@@H]3CNC(C)=O)n2)c1` ; retrieve measured IC50.
## Output 7.8

## Input Param item = `CC(=O)N[C@@H]1C[C@H](Nc2nc(Nc3cc(OC(F)(F)F)ccn3)ccc2C)CC(F)(F)C1` ; retrieve measured IC50.
## Output 70.5

## Input Param item = `CC(=O)NC[C@H]1CCC(F)(F)CN1C(=O)c1nc(Nc2cc(C#N)ccn2)ccc1C` ; retrieve measured IC50.
## Output 4.9

## Input Param item = `CC(=O)NC[C@H]1CCC(F)(F)CN1C(=O)c1cc(Nc2cc(OC(F)(F)F)ccn2)ccc1C` ; retrieve measured IC50.
## Output 265

I: COc1cc(Nc2ccc(C)c(C(=O)N3CC(F)(F)CC[C@@H]3CNC(C)=O)n2)ncc1Cl
II: CC(=O)NC[C@H]1CCC(F)(F)CN1C(=O)c1nc(Nc2cc(C(C)(C)C)sn2)ccc1C
## Input Between I and II , whose recorded IC50 is greater? To answer, give the label that identifies your chosen option.
## Output I
(I: 361 nM, II: 64 nM)

A: CC(=O)NC[C@H]1CCC(F)(F)CN1C(=O)c1nc(Nc2cc(CF)ccn2)ccc1C
B: Cc1ccc(Nc2cc(OC(F)(F)F)ccn2)nc1C(=O)N1CC(F)(F)CC[C@@H]1CN1CCCC1=O
## Input Which of these two has the smaller recorded IC50: A or B ? To answer, give the label that identifies your chosen option.
## Output A

1: CC(=O)NC[C@H]1CCC(F)(F)CN1C(=O)c1nc(Nc2cc(OC(F)(F)F)ccn2)ncc1C
2: CC(=O)NC[C@H]1CCC(F)(F)CN1C(=O)c1nc(Nc2ccccn2)ccc1C
## Input Which of these two has the smaller recorded IC50: 1 or 2 ? To answer, give the label that identifies your chosen option.
## Output 1
(1: 18.4 nM, 2: 35 nM)

a: CC(=O)NC[C@H]1CCC(F)(F)CN1C(=O)c1nc(Nc2cc(N3CCCC3)ccn2)ccc1C
b: Cc1ccc(Nc2cc(OC(F)(F)F)ccn2)nc1C(=O)N1CC(F)(F)CC[C@@H]1CN
## Input Which of these two has the smaller recorded IC50: a or b ? To answer, give the label that identifies your chosen option.
## Output b
